Where do the numbers come from? From PubChem BioAssay (EPA / NIEHS).

experiment: BSK_3C_TissueFactor: BioMAP Diversity Plus: 3C Assay for Tissue Factor Biomarker Activity (AID 2282997); conditions: BioMAP 3C HUVEC, tissue factor biomarker readout; actives raise or lower the signal
Activity calls are given as the source filed them. Rule for the calls: active = hit-call score of the fitted dose curve at least 0.9, where 1 is the maximum; inactive = score below 0.9.
Answer with one of the outcomes active, inactive

Take a look at these entries with their results.
>  <MOL SMILES>
ClC(Cl)=C(c1ccc(Cl)cc1)c1ccc(Cl)cc1

>  <CLASSIFICATION>
active

$$$$
>  <MOL SMILES>
C[C@]12CCC(=O)C=C1CC[C@@H]1[C@@H]2CC[C@]2(C)C(=O)CC[C@@H]12

>  <CLASSIFICATION>
inactive

$$$$
>  <MOL SMILES>
Cc1cc(O)ccc1Cl

>  <CLASSIFICATION>
inactive

$$$$

Query block: # outcome recorded in this test, key = Cc1ccccc1[N+](=O)[O-]
Result block: inactive

Query block: Answer briefly: the call reported for CCC(C)(CC)c1cc(NC(=O)c2c(OC)cccc2OC)on1 in this assay.
Result block: inactive

Query block: Dear all, I need the recorded test outcome for CC#Cc1cc(C)nc(Nc2ccccc2)n1 , thank you.
Result block: inactive

###

assay: Tanguay_ZF_120hpf_JAW_legacy: (Legacy) Oregon State University Tanguay Lab 120 Hour Post-fertilization zebrafish Assay for Jaw Malformation (AID 2283638)
Inconclusive results are not listed. Activity calls are given as the source filed them. Rule for the calls: active = hit-call score of the fitted dose curve at least 0.9, where 1 is the maximum; inconclusive = response in the unintended direction; inactive = score below 0.9.
Return exactly one item of active, inactive

Some solved cases for reference:
>  <MOL SMILES>
CC(c1ccc(O)cc1)(c1ccc(O)cc1)c1ccc(O)cc1

>  <CLASSIFICATION>
inactive

$$$$
>  <MOL SMILES>
O=C(O)C(F)(F)C(F)(F)C(F)(F)C(F)(F)C(F)(F)F

>  <CLASSIFICATION>
inactive

$$$$
>  <MOL SMILES>
Clc1ccc(Cl)cc1

>  <CLASSIFICATION>
inactive

$$$$
>  <MOL SMILES>
CCCCCCCCCc1ccc(O)cc1

>  <CLASSIFICATION>
inactive

$$$$
>  <MOL SMILES>
C=CC(N)=O

>  <CLASSIFICATION>
inactive

$$$$

Query block: Which result was noted for this molecule in the test: CCSC(=O)N(CC)C1CCCCC1
Result block: inactive

Query block: Hi, do you know how O=C(O)C(F)(F)C(F)(F)C(F)(F)C(F)(F)C(F)(F)C(F)(F)C(F)(F)C(F)(F)C(F)(F)F came out in this test?
Result block: inactive

Query block: Status in this test for C[C@]12CCC(=O)C=C1CC[C@@H]1[C@@H]2CC[C@@]2(C)[C@H]1CC[C@]2(C)O ?
Result block: inactive

Query block: Kindly provide the recorded test outcome for the following molecule: CCOC(=O)C(O)(c1ccc(Cl)cc1)c1ccc(Cl)cc1
Result block: inactive

Query block: Which result was noted for this molecule in the test: NS(=O)(=O)C(F)(F)C(F)(F)C(F)(F)C(F)(F)C(F)(F)C(F)(F)C(F)(F)C(F)(F)F
Result block: inactive

Query block: Test call, this molecule: O=S(=O)(O)C(F)(F)C(F)(F)C(F)(F)C(F)(F)F
Result block: inactive

Query block: Test call for this molecule, please: Nc1ccc(-c2ccc(N)cc2)cc1
Result block: inactive

###

read-out: Tissue plasminogen activator (tPA), PLAT (gene 5327); experiment: BSK_BE3C_tPA: BioMAP Diversity Plus: BE3C Assay for Tissue plasminogen activator (tPA) Biomarker Activity (AID 2283041); conditions: primary human bronchial epithelial cells; actives raise or lower the signal
Calls of active or inactive are those of the source. Rule for the calls: active = hit-call score of the fitted dose curve at least 0.9, where 1 is the maximum; inactive = score below 0.9.
PROPERTY NAME: AC50

>  <MOL SMILES>
C[C@]12CCC(=O)C=C1CC[C@@H]1[C@@H]2CC[C@@]2(C)[C@H]1CC[C@]2(C)O

>  <PROPERTY NAME>
AC50

>  <OBSERVED VALUE>
inactive

$$$$
>  <MOL SMILES>
Sc1ccccc1

>  <PROPERTY NAME>
AC50

>  <OBSERVED VALUE>
inactive

$$$$
>  <MOL SMILES>
CCCCCCCCCc1ccc(O)cc1

>  <PROPERTY NAME>
AC50

>  <OBSERVED VALUE>
7.58 µM (active)

$$$$

###

read-out: Cyclin D1 (CCND1), CCND1 (gene 595); assay: LTEA_HepaRG_CCND1: Life Technologies and Expression Analysis (LTEA) Assay for Cyclin D1 (CCND1) using HepaRG (AID 2283451); settings: mRNA level, 48 h; actives raise or lower the signal;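 for AC50: differentiated human HepaRG liver cells in serum-free induction medium; TaqMan qRT-PCR transcript level normalised to ACTB GAPDH and POLR2A housekeeping genes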
Activity calls are given as the source filed them. Rule for the calls: active = hit-call score of the fitted dose curve at least 0.9, where 1 is the maximum; inactive = score below 0.9.
PROPERTY NAME: AC50

Example compounds with recorded AC50:
>  <COMPOUND>
N#Cc1ccc(N(CC(N)=O)CC(F)(F)F)cc1C(F)(F)F

>  <OBSERVED VALUE>
inactive

$$$$
>  <COMPOUND>
Clc1ccc(Cl)cc1

>  <OBSERVED VALUE>
inactive

$$$$
>  <COMPOUND>
Cc1ccccc1[N+](=O)[O-]

>  <OBSERVED VALUE>
inactive

$$$$
>  <COMPOUND>
O=C(O)C(F)(F)C(F)(F)C(F)(F)C(F)(F)C(F)(F)C(F)(F)C(F)(F)C(F)(F)C(F)(F)F

>  <OBSERVED VALUE>
12.6 µM (active)

$$$$
>  <COMPOUND>
Cc1cc(O)ccc1Cl

>  <OBSERVED VALUE>
inactive

$$$$
>  <COMPOUND>
CCC(C)c1cc([N+](=O)[O-])cc([N+](=O)[O-])c1O (configuration not stated)

>  <OBSERVED VALUE>
11.1 µM (active)

$$$$
>  <COMPOUND>
O=NN(c1ccccc1)c1ccccc1

>  <OBSERVED VALUE>
inactive

$$$$
>  <COMPOUND>
Clc1ccc(C(c2ccccc2Cl)C(Cl)(Cl)Cl)cc1 (configuration not stated)

>  <OBSERVED VALUE>
inactive

$$$$

Query block: Which AC50 is listed for C[C@]12CCC(=O)C=C1CC[C@@H]1[C@@H]2CC[C@]2(C)C(=O)CC[C@@H]12 ?
Result block: inactive

Query block: Would you mind telling me what AC50 value was observed for CCCN(CCC)N=O ?
Result block: inactive

Query block: Suppose we examine the compound Oc1ccc(Cl)cc1Cl ; what AC50 value has been reported?
Result block: inactive

Query block: Which AC50 is reported for this compound? Cc1ccccc1CO[C@@H]1C[C@@]2(C(C)C)CC[C@]1(C)O2
Result block: inactive

###

Assay: ATG_MRE_CIS: Attagene CIS-FACTORIAL HepG2 Assay for human Metal Responsive Element (MRE) (AID 2282954)
Settings: HepG2 MRE cis-reporter transcription, Attagene multiplex; actives raise or lower the signal
Procedure: ATG_CIS is a cell-based, multiplexed-readout assay that uses HepG2, a human liver cell line, with measurements taken at 24 hours after chemical dosing in a 24-well plate.ATG_MRE_CIS is one of 52 assay component(s) measured or calculated from the ATG_CIS assay. […] This assay endpoint, ATG_MRE_CIS, was analyzed with bidirectional fitting relative to DMSO as the negative control and baseline of activity. […]
Calls of active or inactive are those of the source. Rule for the calls: active = hit-call score of the fitted dose curve at least 0.9, where 1 is the maximum; inactive = score below 0.9.
PROPERTY NAME: AC50

Past entries and their recorded results:
>  <COMPOUND>
Cc1cc2c3c(c1)C(c1ccccc1)=N[C@@H](NC(=O)c1ccncc1)C(=O)N3CC2

>  <AC50>
77.1 µM (active)

$$$$
>  <COMPOUND>
ClC1=C(Cl)[C@]2(Cl)[C@@H]3[C@@H](Cl)[C@H]4O[C@H]4[C@@H]3C1(Cl)C2(Cl)Cl

>  <AC50>
100 µM (active)

$$$$
>  <COMPOUND>
c1cc2ccc3cccc4ccc(c1)c2c34

>  <AC50>
inactive

$$$$
>  <COMPOUND>
Cc1ccccc1O

>  <AC50>
inactive

$$$$
>  <COMPOUND>
CN(C)CCO

>  <AC50>
inactive

$$$$
>  <COMPOUND>
CCC(C)c1cc([N+](=O)[O-])cc([N+](=O)[O-])c1O (configuration not stated)

>  <AC50>
13.5 µM (active)

$$$$

--- query ---
Query block: Which AC50 reading was recorded for the compound CC(C)C(=O)OCC(C)(C)C(OC(=O)C(C)C)C(C)C (configuration not stated) ?
Result block: inactive

###

read-out: Cytochrome P450 (CYP1A1), CYP1A1 (gene 1543); test: LTEA_HepaRG_CYP1A1: Life Technologies and Expression Analysis (LTEA) Assay for Cytochrome P450 (CYP1A1) using HepaRG (AID 2283454); conditions: mRNA level, 48 h; actives raise or lower the signal
Active and inactive are the calls of the source. How the source made its calls: active means hit-call score of the fitted dose curve at least 0.9, where 1 is the maximum; inactive means score below 0.9.
Pick one: 1 (yes) (active), 0 (no) (inactive)

Query block: Returns: the outcome recorded for CCCN(CCC)N=O in this assay.
Result block: 1 (yes)

Query block: GET /call?item= N#Cc1ccc(N(CC(N)=O)CC(F)(F)F)cc1C(F)(F)F returns the recorded outcome of this test.
Result block: 1 (yes)

Query block: What was the test verdict on O=S(=O)(O)C(F)(F)C(F)(F)C(F)(F)C(F)(F)C(F)(F)C(F)(F)F ?
Result block: 1 (yes)
